Numbers sourced from paper PMC9736855.

Task for the reader: assign each of the following compounds its reported EC50.
Target: CDK6/Cyclin D1 (Homo sapiens)
Construct: Full-length kinases were obtained as plasmids cloned in frame with a terminal NanoLuc-fusion; CS1810C118 (CCND1)
Sequence (Q00534 whole entry, the tested form may be a part): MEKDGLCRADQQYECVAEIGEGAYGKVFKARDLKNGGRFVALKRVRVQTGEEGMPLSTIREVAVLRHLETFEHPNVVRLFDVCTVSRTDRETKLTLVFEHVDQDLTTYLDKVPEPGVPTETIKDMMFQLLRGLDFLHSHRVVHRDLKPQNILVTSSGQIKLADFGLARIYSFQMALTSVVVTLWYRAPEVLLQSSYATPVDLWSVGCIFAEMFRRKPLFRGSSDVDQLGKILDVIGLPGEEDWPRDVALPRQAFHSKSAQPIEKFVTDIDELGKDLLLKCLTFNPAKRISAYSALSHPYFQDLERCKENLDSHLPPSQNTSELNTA
Sequence (P24385 whole entry partner, the tested form may be a part): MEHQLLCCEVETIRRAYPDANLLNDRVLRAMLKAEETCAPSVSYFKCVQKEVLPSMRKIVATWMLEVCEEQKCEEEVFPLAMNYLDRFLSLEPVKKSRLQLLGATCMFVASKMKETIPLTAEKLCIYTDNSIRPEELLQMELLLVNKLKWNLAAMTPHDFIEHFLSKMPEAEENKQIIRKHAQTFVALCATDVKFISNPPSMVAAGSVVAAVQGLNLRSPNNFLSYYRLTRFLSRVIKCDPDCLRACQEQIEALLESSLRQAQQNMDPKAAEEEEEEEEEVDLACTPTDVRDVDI
Test: NanoBRET
Details: read-out: NanoBRET EC50 ± SEM CDK6/Cyclin D1
Description: The assay was performed as described previously. In brief: Full-length kinases were obtained as plasmids cloned in frame with a terminal NanoLuc-fusion (Promega, Madison, WI, USA), as specified in table (Table S6). […] Serially diluted inhibitor and NanoBRET Kinase Tracer (Promega) at a concentration determined previously as the KD,app (Table S5) were pipetted into white 384-well plates (Greiner 781207) using an Echo acoustic dispenser (Labcyte, San Jose, CA, USA). […]
One number for each entry, in µM.

Observe how each entry below is paired with its result.
>  <compound>
COC(=O)c1cc(Nc2ccnc(NCc3ccc(NC(=O)OC(C)(C)C)cc3)n2)[nH]n1 [21i]

>  <value units>
µM

>  <EC50>
7.45

$$$$
>  <compound>
N#CCc1ccc(Nc2nccc(Nc3cc(C4CC4)[nH]n3)n2)cc1 [compound 1, reference compound]

>  <value units>
µM

>  <EC50>
0.0105

$$$$
>  <compound>
CC(C)OC(=O)c1cc(Nc2ccnc(NCc3ccc(NC(=O)OC(C)(C)C)cc3)n2)n[nH]1 [42d]

>  <value units>
µM

>  <EC50>
0.959

$$$$

Request: Any idea what its EC50 is? The compound is CC(C)(C)OC(=O)Nc1ccc(CNc2nccc(Nc3cc(C(=O)OC(C)(C)C)[nH]n3)n2)cc1 [43d]
Result: 1.74

###

Target: MAP2K6 (Homo sapiens, UniProt P52564)
Construct: purchased in-house DSF panel (SGC Frankfurt)
Sequence (P52564 53-314): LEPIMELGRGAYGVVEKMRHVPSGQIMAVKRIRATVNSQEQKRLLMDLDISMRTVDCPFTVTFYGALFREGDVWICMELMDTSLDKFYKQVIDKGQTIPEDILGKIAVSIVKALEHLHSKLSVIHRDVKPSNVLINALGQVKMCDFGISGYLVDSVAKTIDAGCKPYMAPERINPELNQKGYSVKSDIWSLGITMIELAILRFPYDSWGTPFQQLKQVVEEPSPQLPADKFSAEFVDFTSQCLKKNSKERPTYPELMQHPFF
Test: DSF
Type: binding
Label TRUE when ΔTm MAP2K6 < 5 °C; otherwise FALSE.

>  <molecule>
CC(C)(C)OC(=O)Nc1ccc(CNc2nccc(Nc3cc(C(=O)OC(C)(C)C)[nH]n3)n2)cc1 [43d]

>  <category label>
TRUE

$$$$

Request: Quick check: does COC(=O)c1cc(Nc2ccnc(NCc3ccc(NC(=O)OC(C)(C)C)cc3)n2)[nH]n1 [21i] have ΔTm MAP2K6 under 5 °C?
Result: FALSE

Request: And the next one, N#CCc1ccc(Nc2nccc(Nc3cc(C4CC4)[nH]n3)n2)cc1 [compound 1, reference compound] ?
Result: FALSE

Request: Again, but for COC(=O)c1cc(Nc2ccnc(NCCOCCNC(=O)OC(C)(C)C)n2)[nH]n1 [21d]
Result: TRUE

###

Target: CDK9/Cyclin K (Homo sapiens)
Construct: Full-length kinases were obtained as plasmids cloned in frame with a terminal NanoLuc-fusion; CS1810C93 (CCNK)
Sequence (P50750 whole entry, the tested form may be a part): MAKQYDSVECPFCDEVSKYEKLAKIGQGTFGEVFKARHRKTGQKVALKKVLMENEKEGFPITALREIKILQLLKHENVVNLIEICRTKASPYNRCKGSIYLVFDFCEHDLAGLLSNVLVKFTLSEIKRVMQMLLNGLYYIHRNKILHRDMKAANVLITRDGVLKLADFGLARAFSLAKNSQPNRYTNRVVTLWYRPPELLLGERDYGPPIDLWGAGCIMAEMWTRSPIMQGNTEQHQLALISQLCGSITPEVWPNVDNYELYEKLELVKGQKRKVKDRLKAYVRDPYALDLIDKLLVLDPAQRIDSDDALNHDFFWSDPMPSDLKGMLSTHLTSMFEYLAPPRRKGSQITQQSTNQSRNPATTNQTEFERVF
Experiment: NanoBRET
Conditions: read-out: NanoBRET EC50 ± SEM CDK9/Cyclin K
I'd be grateful if you could share measured pEC50 for these entries.
Give bare numbers, as −log10 of the molar value.

In the examples that follow, each entry is paired with its recorded pEC50.
>  <molecule>
COC(=O)c1cc(Nc2ccnc(NCc3ccc(NC(=O)OC(C)(C)C)cc3)n2)[nH]n1 [21i]

>  <measurement type>
pEC50

>  <reported>
5.15

$$$$
>  <molecule>
CC(C)(C)OC(=O)Nc1ccc(CNc2nccc(Nc3cc(C(=O)OC(C)(C)C)[nH]n3)n2)cc1 [43d]

>  <measurement type>
pEC50

>  <reported>
6.00

$$$$
>  <molecule>
CC(C)OC(=O)c1cc(Nc2ccnc(NCc3ccc(NC(=O)OC(C)(C)C)cc3)n2)n[nH]1 [42d]

>  <measurement type>
pEC50

>  <reported>
6.24

$$$$

From here, focus on the item given below.
Request: What does the record list as pEC50 for N#CCc1ccc(Nc2nccc(Nc3cc(C4CC4)[nH]n3)n2)cc1 [compound 1, reference compound] ?
Result: 7.76
